# Tested on: HOP-62 NSCLC
# protocolSummary: NCI-60 one-dose screen, 48 h (100 = growth as untreated, 0 = no growth, -100 = all killed)
# conditionSet: 10 µM unless noted
# Experimental: Growth inhibition of the HOP-62 human Non-Small Cell Lung tumor cell line is measured as a screen for anti-cancer activity. Cells are grown in 96 well plates and exposed to the test compound for 48 hours. Compounds are tested at a single concentration, which is 10^-5 M for most compounds. The reported endpoint is percent growth (GI% or GIPRCNT), where numbers from 0 - 100% represent growth inhibition, and numbers from -100% - 0 represent cell death. […]
This is part of a sample that, as a whole, favours compounds with a hit. Of some 83,000 tested, about 20% had one in any assay.
observationType: growth (%)

[
  {
    "molecule": "CCOc1ccc(-c2nonc2NC(=O)c2cccc(C)c2)cc1OCC",
    "readingUnit": "%",
    "obsValue": 96.9
  },
  {
    "molecule": "O=C(O)CCCN1C(=O)C2C3CCC(C3)C2C1=O (stereo not given)",
    "readingUnit": "%",
    "obsValue": 109
  },
  {
    "molecule": "CCCN1CCN(c2ccc3nc(-c4ccc5nc(-c6cc(OC)ccc6OC)[nH]c5c4)[nH]c3c2)CC1",
    "readingUnit": "%",
    "obsValue": 117
  },
  {
    "molecule": "O=C(CN1C(=O)/C(=C\\c2ccc(Cl)cc2)SC1=S)Nc1ncc(Cc2ccc(Cl)cc2)s1",
    "readingUnit": "%",
    "obsValue": 105
  },
  {
    "molecule": "NC(=O)CSc1nc(-c2ccc(F)cc2)cc(-c2ccco2)n1",
    "readingUnit": "%",
    "obsValue": 108
  },
  {
    "molecule": "COC(=O)c1c2c(c(C)[n+]([O-])c1C)C(=O)C=C(NCc1ccccc1)C2=O",
    "readingUnit": "%",
    "obsValue": 2.96
  },
  {
    "molecule": "O=C(Nc1ccc(F)c(Cl)c1)Nc1ccc(Cl)c(Cl)c1",
    "readingUnit": "%",
    "obsValue": 74.2
  },
  {
    "molecule": "Nc1cccc(Nc2cc(S(=O)(=O)O)c(N)c3c2C(=O)c2ccccc2C3=O)c1",
    "readingUnit": "%",
    "obsValue": 114
  },
  {
    "molecule": "COc1ccc(CSc2nnc(SCC(=O)Nc3ccc(Cl)cc3)s2)cc1",
    "readingUnit": "%",
    "obsValue": 89
  },
  {
    "molecule": "COc1cc(C=C2C(=O)N(C)C(=O)N(C)C2=O)cc(CN2CCCCC2)c1O",
    "readingUnit": "%",
    "obsValue": 93.1
  }
]

Data provenance: PubChem BioAssay (NCI)
